The substances listed here are annotated with their % binding @ 100 nM vWF.
System: full length human vWF (SEQ ID NO 7)
Experiment: dot blot KD determination and extent of binding, full length human vWF;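 note: dot blot binding of aptamers to full length human vWF across a protein titration, incubated 30 minutes at room temperature in 1x DPBS with BSA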
Settings: Phase 2 modification; extent of aptamer binding at 100 nM full length human vWF
Oligonucleotides are written 5' to 3', each unit as a sugar letter and its base; * is a phosphorothioate linkage, no mark a phosphodiester; rarer units and linkages stand in square brackets, end groups in braces. Plain capitals give the bases only. [invdT] = inverted (3'-3') thymidine; d = 2'-deoxy (DNA); m = 2'-O-methyl
Value and unit, in that order.

Please review the entries below; each comes with its answer.
| substance | test_target | data_value |
| --- | --- | --- |
| dGdGdCdGTdGdCdAmGmUdGdCdCTTdCdGdGdCdCmGTmGdCdGdGTdGdCdCTdCdCmGmUmCdAdCdGdCdC-3T (dGdGdCdGdTdGdCdAmGmUdGdCdCdTdTdCdGdGdCdCmGdTmGdCdGdGdTdGdCdCdTdCdCmGmUmCdAdCdGdCdC[invdT]; aptamer) [ARC1339] | full length human vWF (SEQ ID NO 7) | 39% |
| dGdGdCdGTdGdCdAdGTdGdCdCTTdCdGdGdCdCdGTmGdCdGdGTmGmCdCmUdCdCmGmUmCdAdCdGdCdC-3T (dGdGdCdGdTdGdCdAdGdTdGdCdCdTdTdCdGdGdCdCdGdTmGdCdGdGdTmGmCdCmUdCdCmGmUmCdAdCdGdCdC[invdT]; aptamer) [ARC1340] | full length human vWF (SEQ ID NO 7) | 43% |
| mGmGmCmGmUdGdCdAmGmUmGmCmCmUmUmCmGmGmCdCmGTmGdCdGdGTmGmCdCmUdCdCmGmUmCmAmCmGmCmC-3T (mGmGmCmGmUdGdCdAmGmUmGmCmCmUmUmCmGmGmCdCmGdTmGdCdGdGdTmGmCdCmUdCdCmGmUmCmAmCmGmCmC[invdT]; aptamer) [ARC1342] | full length human vWF (SEQ ID NO 7) | 33% |

Now, please, on to the next substance.
Value lookup for % binding @ 100 nM vWF; key = mGmGmCmGmU-s-dG-s-dC-s-dAmGmUmGmCmCmUmUmCmGmGmC-s-dCmG-s-TmG-s-dC-s-dG-s-dG-s-TmGmC-s-dCmU-s-dC-s-dCmGmUmCmAmCmGmCmC-3T (mGmGmCmGmU*dG*dC*dAmGmUmGmCmCmUmUmCmGmGmC*dCmG*dTmG*dC*dG*dG*dTmGmC*dCmU*dC*dCmGmUmCmAmCmGmCmC[invdT]) [ARC1345]
29%

Entry source: patent US7998940B2
